Value source: paper PMC4379176

measured target: rCTR1 (Arabidopsis thaliana, UniProt Q05609)
Construct: gene CTR1; full-length CTR1 coding region, N-terminal GST fusion (pGEX-6P-1), E. coli BL21 (DE3); tag kept (detected by anti-GST)
Sequence (Q05609 whole entry, the tested form may be a part): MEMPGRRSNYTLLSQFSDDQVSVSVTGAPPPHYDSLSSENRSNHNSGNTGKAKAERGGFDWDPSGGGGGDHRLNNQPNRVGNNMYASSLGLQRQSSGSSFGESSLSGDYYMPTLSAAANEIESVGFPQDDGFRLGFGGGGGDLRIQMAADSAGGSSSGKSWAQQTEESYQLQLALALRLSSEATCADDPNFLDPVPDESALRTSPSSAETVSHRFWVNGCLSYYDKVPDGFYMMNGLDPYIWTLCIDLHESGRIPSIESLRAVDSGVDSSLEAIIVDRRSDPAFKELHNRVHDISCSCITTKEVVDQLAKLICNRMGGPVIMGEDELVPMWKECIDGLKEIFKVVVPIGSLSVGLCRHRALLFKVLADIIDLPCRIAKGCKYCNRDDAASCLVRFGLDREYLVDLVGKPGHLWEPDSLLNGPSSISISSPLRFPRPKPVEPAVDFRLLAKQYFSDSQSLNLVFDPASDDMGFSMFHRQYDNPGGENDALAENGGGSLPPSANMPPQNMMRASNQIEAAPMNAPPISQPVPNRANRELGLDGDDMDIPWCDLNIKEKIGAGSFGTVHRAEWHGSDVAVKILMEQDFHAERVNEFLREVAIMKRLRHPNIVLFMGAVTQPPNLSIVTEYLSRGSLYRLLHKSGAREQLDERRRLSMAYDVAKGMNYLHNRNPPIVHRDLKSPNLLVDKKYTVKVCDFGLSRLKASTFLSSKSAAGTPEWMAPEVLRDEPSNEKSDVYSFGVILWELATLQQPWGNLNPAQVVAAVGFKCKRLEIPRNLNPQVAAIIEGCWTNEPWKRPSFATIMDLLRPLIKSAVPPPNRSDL
assay info: microscale thermophoresis
Format: binding
test conditions: read-out: Dissociation Constants (K d) / 24:1-Cer
property name: Kd (nM)
Reply numerically in nM, unit not repeated.

Problem: Sample CCCCCCCC/C=C\CCCCCCCCCCCCCC(=O)N[C@@H](CO)[C@H](O)/C=C/CCCCCCCCCCCCC — what was its Kd?
Result: 1600
